Taken from patent US20240270821A1.

Target: hGLP-1R (Homo sapiens, UniProt P43220)
Sequence (P43220 24-463): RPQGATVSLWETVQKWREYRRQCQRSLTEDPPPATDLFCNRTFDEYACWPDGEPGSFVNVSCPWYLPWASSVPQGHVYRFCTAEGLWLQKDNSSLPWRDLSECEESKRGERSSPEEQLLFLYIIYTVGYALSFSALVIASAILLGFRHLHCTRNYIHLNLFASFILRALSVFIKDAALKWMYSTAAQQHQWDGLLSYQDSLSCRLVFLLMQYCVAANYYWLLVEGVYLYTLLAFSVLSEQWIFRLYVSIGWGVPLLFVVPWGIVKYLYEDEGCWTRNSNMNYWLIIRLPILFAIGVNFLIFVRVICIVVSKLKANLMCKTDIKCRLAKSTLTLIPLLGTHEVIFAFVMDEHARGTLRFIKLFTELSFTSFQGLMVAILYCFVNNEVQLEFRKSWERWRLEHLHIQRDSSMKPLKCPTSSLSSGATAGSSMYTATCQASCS
Test: cell-based or functional assay
Non-standard residues stand in square brackets, D forms with d. No end group written: not given here. Phe(4-CN) = N#Cc1ccc(C[C@H](N)C(=O)O)cc1; αMePhe(2-F) = C[C@](N)(Cc1ccccc1F)C(=O)O; Aib = CC(C)(N)C(=O)O
measured endpoint: cAMP Rel EC50, nM (1% HSA) (nM)
Give bare numbers, in nM.

binder	measured endpoint	quantitative result
Y[Aib]QGT[αMePhe(2-F)]TSD[Phe(4-CN)]SILLDKQAQKAFIEYLLEGGPSSGEPPPSEG-NH2 (not fully specified (residue 20)) [Example 352]	cAMP Rel EC50, nM (1% HSA)	407
YXQGTFTSDFSXXLDKKAQXAFIEYLLEXGESSGAPPPSGS (acylated; synthetic construct; SITE 2: note = 2-Aminoisobutyric Acid; SITE 12: note = L-ornithine; SITE 13: note = alpha-methyl-leucine; SITE 17: note = Lysine is chemically modified through conjugation of the epsilon-amino group of the Lysine side chain with (2-[2-(2-Amino-ethoxy)-ethoxy]-acetyl)-(gamma-Glu)) [Example 240]	cAMP Rel EC50, nM (1% HSA)	396
YXQGTXTSDYXIXLDXKAQXXFIEXLEEGGPSSGEPPPE (synthetic construct; SITE 2: note = 2-Aminoisobutyric Acid; SITE 6: note = alpha-methyl-2-fluoro-L-phenylalanine; SITE 11: note = alpha-methyl-L-serine; SITE 13: note = alpha-methyl-leucine; SITE 16: note = L-ornithine; SITE 17: note = Lysine is chemically modified through conjugation of the epsilon) [Example 402]	cAMP Rel EC50, nM (1% HSA)	86.6
HXQGTXTSDYSILLDKKAQXAFIEYLEEGGPSSGAPPPS (synthetic construct; SITE 2: note = 2-Aminoisobutyric Acid; SITE 6: note = alpha-methyl-2-fluoro-L-phenylalanine; SITE 17: note = Lysine is chemically modified through conjugation of the epsilon-amino group of the Lysine side chain with (gamma-Glu)2-CO-(CH2)16-CO2H; SITE 20: note = 2-Aminoisobutyric) [Example 426]	cAMP Rel EC50, nM (1% HSA)	16.6
YXQGTFTSDFSXXLDKKAQXAFIEWLLEGGHSSGAPPPSGS (synthetic construct; SITE 2: note = 2-Aminoisobutyric Acid; SITE 12: note = L-ornithine; SITE 13: note = alpha-methyl-leucine; SITE 17: note = Lysine is chemically modified through conjugation of the epsilon-amino group of the Lysine side chain with (2-[2-(2-Amino-ethoxy)-ethoxy]-acetyl)-(gamma-Glu)) [Example 170]	cAMP Rel EC50, nM (1% HSA)	361

**Query** Any idea what cAMP Rel EC50, nM (1% HSA) was measured for YXQGTFTSDXSQXLDXKAQXAFIEYLIAGGPSSGEPPPSGSGE (non-natural residues, acylated Lys; synthetic construct; SITE 2: note = 2-Aminoisobutyric Acid; SITE 10: note = 3-(4-Pyridyl)-L-alanine; SITE 13: note = alpha-methyl-leucine; SITE 16: note = L-ornithine; SITE 17: note = Lysine is chemically modified through conjugation of the epsilon-amino group of the Lysine side chain with (gamma-Gl)) [Example 978] ?
**Result** 174
